B1: SETD8 (parent)
chain: FVVEYHGDLIEITDAKKREALYAQ

# Variants of: B1
# Assay procedure: protein stability index of a GFP-peptide fusion (GPS, HEK-293T) (PSI 1-6); higher = more stable;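 further: lentivirally expressed fusions sorted by FACS into six bins by GFP to DsRed ratio, PSI derived from sequencing read proportions per bin multiplied by bin number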
# Test parameters: c terminus: a fixed tail appended
Readout type: protein stability index
// no unit string in output, number only

{"Chain": "FVVEYHGDLIEITGAKKREALYAQ", "protein stability index": 3.5}
{"Chain": "FVVIYHGDLIEITDAKKREALYAQ", "protein stability index": 1.03}
{"Chain": "FVVEYHGDLIEITDAKKREALYAT", "protein stability index": 2.09}
{"Chain": "FVVEYHGDLIEITDAKKREALYCQ", "protein stability index": 1.29}
{"Chain": "FVVEYHGDLIEITDAKKREALYHQ", "protein stability index": 2.1}
{"Chain": "FVVEYIGDLIEITDAKKREALYAQ", "protein stability index": 2.19}

Prompt: Find the recorded protein stability index belonging to FVSEYHGDLIEITDAKKREALYAQ and report it.
Completion: 1.84

Prompt: Find the recorded protein stability index belonging to FVVEYHGDLIEITDAKKREALCAQ and report it.
Completion: 2.13

meta.source: the supplement of paper PMC10567573
